Where do these numbers come from? They come from patent US20060029603A1.

Study target: T1, GST-human NOGO-A56 (human, UniProt P08515 1-218 = GST)
T1 construct: GST-tagged fusion expressed in E. coli BL21 and purified on glutathione-sepharose; coated on ELISA plates or amine-coupled to a CM5 chip; also called hNOGO; recombinant human NOGO
T1 sequence (P08515 1-218, tags or fused parts left off): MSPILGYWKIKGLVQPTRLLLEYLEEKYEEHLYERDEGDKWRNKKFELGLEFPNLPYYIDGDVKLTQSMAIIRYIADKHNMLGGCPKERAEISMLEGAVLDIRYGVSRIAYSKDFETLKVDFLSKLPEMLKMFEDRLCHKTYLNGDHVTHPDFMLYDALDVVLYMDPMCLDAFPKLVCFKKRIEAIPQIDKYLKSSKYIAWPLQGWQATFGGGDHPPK
Protocol notes: SPR (Biacore) off-rate ranking, CHO-K1 transient supernatant over GST-human NOGO-A56 chip; single experiment
Recorded endpoint: koff (s⁻¹)
Answers are plain numbers, in s⁻¹.

Q: For H18L13 (antibody, human IgG1, kappa, V domains shown, Tested as CHO-K1 supernatant) VH: QVQLVQSGAEVVKPGASVKLSCKASGYTFTSYWMHWVKQRPGQGLEWIGNINPSNGGTNYNEKFKSKATLTVDKSSSTAYMELSSLRSEDSAVYYCELGQGYWGQGTLVTVSS VL: DIVMTQSPLSLPVTLGQPASISCRSSKSLLYKDGKTYLNWFQQRPGQSPQLLIYLMSTRASGVPDRFSGGGSGTDFTLKISRVEAEDVGVYYCQQLVEYPLTFGQGTKLEIKR , write its koff.
A: 0.00907
